- assayed target: HDAC6 human recombinant (Homo sapiens (Human))
- test protocol: HDAC enzyme activity inhibition (in vitro), HDAC6 assay
- test conditions: samples at 0.1, 1, 10, 100 and 1000 nM; 37° C. 60 minutes; fluorescence Ex 390, Em 460
quantity kind: IC50 (µM)

For orientation, consider the following solved cases.
CC1(C)C(=O)N(Cc2ccc(-c3nnc(C(F)F)o3)cn2)C(=O)c2ccc(-c3ccoc3)cc21 [Compound 102] = 0.03
O=C1c2ccccc2C2(CCC2)C(=O)N1Cc1ccc(-c2nnc(C(F)F)o2)cn1 [Compound 4] = 0.032

a. CC1(C)C(=O)N(Cc2ccc(-c3nnc(C(F)F)o3)cc2)C(=O)c2ccccc21 [Compound 6]
b. CC1(C)C(=O)N(Cc2ccc(-c3nnc(C(F)F)o3)cn2)C(=O)c2cc(C3=CCS(=O)(=NC(=O)C(F)(F)F)CC3)ccc21 (stereo not shown) [Compound 125]
Asked: a or b : whose IC50 is greater? Could you answer with the label of the item you picked?
Given back: a

---

- assayed target: HDAC6 human recombinant (Homo sapiens (Human), UniProt Q9UBN7)
- Sequence (Q9UBN7 whole entry): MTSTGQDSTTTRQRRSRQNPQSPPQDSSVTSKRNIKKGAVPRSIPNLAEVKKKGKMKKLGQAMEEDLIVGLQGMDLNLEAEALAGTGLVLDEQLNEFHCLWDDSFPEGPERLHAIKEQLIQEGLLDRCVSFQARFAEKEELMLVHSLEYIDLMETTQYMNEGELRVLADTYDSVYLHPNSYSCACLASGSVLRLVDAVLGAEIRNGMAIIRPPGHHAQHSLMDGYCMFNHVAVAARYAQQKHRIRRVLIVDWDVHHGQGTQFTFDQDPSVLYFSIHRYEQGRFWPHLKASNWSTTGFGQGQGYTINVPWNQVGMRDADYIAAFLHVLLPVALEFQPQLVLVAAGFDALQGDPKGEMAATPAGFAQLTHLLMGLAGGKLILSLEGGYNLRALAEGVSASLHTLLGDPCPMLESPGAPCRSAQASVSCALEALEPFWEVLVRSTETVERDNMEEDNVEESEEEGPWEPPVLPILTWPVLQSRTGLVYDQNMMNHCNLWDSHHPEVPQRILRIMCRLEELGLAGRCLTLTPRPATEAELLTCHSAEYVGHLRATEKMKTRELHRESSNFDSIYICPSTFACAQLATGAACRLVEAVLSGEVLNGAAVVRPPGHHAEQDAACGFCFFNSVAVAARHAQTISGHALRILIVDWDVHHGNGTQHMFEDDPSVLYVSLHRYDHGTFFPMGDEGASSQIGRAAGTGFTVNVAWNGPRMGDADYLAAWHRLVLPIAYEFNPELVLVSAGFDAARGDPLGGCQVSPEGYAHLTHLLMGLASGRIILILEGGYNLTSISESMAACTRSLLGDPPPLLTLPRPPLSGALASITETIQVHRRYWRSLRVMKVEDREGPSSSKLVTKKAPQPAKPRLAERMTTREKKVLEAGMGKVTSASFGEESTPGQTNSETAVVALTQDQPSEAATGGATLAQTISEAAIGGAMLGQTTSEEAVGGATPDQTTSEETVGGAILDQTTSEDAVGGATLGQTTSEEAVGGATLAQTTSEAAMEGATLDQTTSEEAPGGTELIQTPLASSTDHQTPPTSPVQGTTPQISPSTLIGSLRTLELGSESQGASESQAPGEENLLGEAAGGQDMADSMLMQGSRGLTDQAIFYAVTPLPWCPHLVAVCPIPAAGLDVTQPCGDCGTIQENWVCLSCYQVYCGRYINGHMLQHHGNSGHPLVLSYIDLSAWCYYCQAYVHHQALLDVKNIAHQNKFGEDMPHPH
- test protocol: HDAC enzyme activity inhibition (in vitro), HDAC6 assay
- test conditions: samples at 0.1, 1, 10, 100 and 1000 nM; 37° C. 60 minutes; fluorescence Ex 390, Em 460
pIC50: −log10 of the molar value.
quantity kind: pIC50

O=C1c2ccccc2C(=O)N1Cc1ccc(-c2nnc(C(F)F)o2)cc1F = 6.25

I. Cn1c(=O)n(Cc2ccc(-c3nnc(C(F)F)o3)cn2)c(=O)c2cc(Br)ccc21
II. CCN1CCN(c2ccc3c(c2)C2(CCC2)C(=O)N(Cc2ccc(-c4nnc(C(F)F)o4)cn2)C3=O)CC1
Asked: I or II : whose pIC50 is greater? Could you answer with the label of the item you picked?
Given back: II
(II: 7.66, I: 7.40)

1. CC1(C)C(=O)N(Cc2ccc(-c3nnc(C(F)F)o3)cn2)C(=O)c2cc(C3CCN(C4CCC4)CC3)ccc21
2. CN1CCN(c2ccc3c(c2)C(=O)N(Cc2ccc(-c4nnc(C(F)F)o4)cn2)C(=O)C3(C)C)CC1
3. Cn1c(=O)n(Cc2ccc(-c3nnc(C(F)F)o3)cn2)c(=O)c2ccc(Br)cc21
Asked: Descending sort on pIC50 required. # the answer lists labels in the order requested
Given back: 2, 1, 3

I. COCCN1CCN(c2ccc3c(c2)C(C)(C)C(=O)N(Cc2ccc(-c4nnc(C(F)F)o4)cn2)C3=O)CC1
II. CC1(C)C(=O)N(Cc2ccc(-c3nnc(C(F)F)o3)cn2)C(=O)c2ccc(-c3ccco3)cc21
Asked: I or II : whose pIC50 is greater? Could you answer with the label of the item you picked?
Given back: I

---

- assayed target: HDAC6 human recombinant (Homo sapiens (Human))
- test protocol: HDAC enzyme activity inhibition (in vitro), HDAC6 assay
- Type: biochemical
- test conditions: samples at 0.1, 1, 10, 100 and 1000 nM; 37° C. 60 minutes; fluorescence Ex 390, Em 460
quantity kind: IC50 (nM)

CN(C)C1CCN(c2ccc3c(c2)C(C)(C)C(=O)N(Cc2ccc(-c4nnc(C(F)F)o4)cn2)C3=O)CC1 [Compound 37] = 15
CCN1CCC(c2ccc3c(c2)C(C)(C)C(=O)N(Cc2ncc(-c4nnc(C(F)F)o4)cn2)C3=O)CC1 [Compound 156] = 56
CC1(C)C(=O)N(Cc2ccc(-c3nnc(C(F)F)o3)cn2)C(=O)c2c(N3CCOCC3)cccc21 [Compound 83] = 98
CC1(C)C(=O)N(Cc2ccc(-c3nnc(C(F)F)o3)cn2)C(=O)c2cc(C3CCN(CC(F)(F)F)CC3)ccc21 [Compound 135] = 100
O=c1c2cc(F)ccc2n(CCN2CCCCC2)c(=O)n1Cc1ccc(-c2nnc(C(F)F)o2)cn1 [Compound 71] = 150

1. COCCn1c(=O)c2ccccc2n(Cc2ccc(-c3nnc(C(F)F)o3)cn2)c1=O [Compound 76]
2. CN1CCC(c2ccc3c(c2)C(C)(C)C(=O)N(Cc2ccc(-c4nnc(C(F)F)o4)cn2)C3=O)CC1 [Compound 44]
3. CCCCCN1CCN(c2ccc3c(c2)C(C)(C)C(=O)N(Cc2ccc(-c4nnc(C(F)F)o4)cn2)C3=O)CC1 [Compound 45]
Asked: Sort the molecules on IC50; start with the lowest figure. # the answer lists labels in the order requested
Given back: 2, 1, 3
(2: 19 nM, 1: 79 nM, 3: 156 nM)
